system: CYP3A4; conditions: Lot 2B HepatoCells; RIS calibration curve
measuredMetric: Predicted % AUC Change Based on Activity (%)

[[record]]
compound = "CCc1ccc(CCOc2ccc(CC3SC(=O)NC3=O)cc2)nc1 (centres unmarked) [Pioglitazone]"
result = 17

[[record]]
compound = "NC(=O)N1c2ccccc2C=Cc2ccccc21 [Carbamazepine]"
result = 92

[[record]]
compound = "CCCN(CCC)S(=O)(=O)c1ccc(C(=O)O)cc1 [Probenecid]"
result = 96

[[record]]
compound = "COc1ccc2[nH]c([S+]([O-])Cc3ncc(C)c(OC)c3C)nc2c1 (centres unmarked) [Omeprazole]"
result = 0.11

[[record]]
compound = "O=C1NC(=O)C(c2ccccc2)(c2ccccc2)N1 [Phenytoin]"
result = 96


###

tested on: CYP3A4 mRNA; experiment: Concentration-dependent CYP3A4 mRNA induction in HepatoCells; conditions: Lot 3A; RIS = (Emax × Cmax,ub)/(EC50 + Cmax,ub)
measuredMetric: RIS Based on mRNA

[[record]]
compound = "CCCN(CCC)S(=O)(=O)c1ccc(C(=O)O)cc1"
measuredmetric = "RIS Based on mRNA"
result = 3.2

[[record]]
compound = "NC(=O)N1c2ccccc2C=Cc2ccccc21 [Carbamazepine]"
measuredmetric = "RIS Based on mRNA"
result = 0.77

[[record]]
compound = "COc1ccc2[nH]c([S+]([O-])Cc3ncc(C)c(OC)c3C)nc2c1 (stereo not drawn)"
measuredmetric = "RIS Based on mRNA"
result = 0.073

[[record]]
compound = "O=C1NC(=O)C(c2ccccc2)(c2ccccc2)N1"
measuredmetric = "RIS Based on mRNA"
result = 12.1

[[record]]
compound = "CCc1ccc(CCOc2ccc(CC3SC(=O)NC3=O)cc2)nc1 (stereo not drawn)"
measuredmetric = "RIS Based on mRNA"
result = 0.37

[[record]]
compound = "O=C1C(CC[S+]([O-])c2ccccc2)C(=O)N(c2ccccc2)N1c1ccccc1 (stereo not drawn)"
measuredmetric = "RIS Based on mRNA"
result = 1.8


###

system: CYP1A2; test: CYP1A2 induction response to prototypical inducer, enzyme activity, primary human hepatocytes; settings: cryopreserved primary human hepatocytes, probe phenacetin 100 µM
measuredMetric: fold induction at 72 h, 50 µM

[[record]]
molecule = "COc1ccc2[nH]c([S+]([O-])Cc3ncc(C)c(OC)c3C)nc2c1 (stereo not shown) [Omeprazole]"
measuredmetric = "fold induction at 72 h, 50 µM"
result = 28.7


###

Readings of Predicted % AUC Change Based on mRNA for the listed compounds
tested on: CYP3A4; settings: Lot 2B HepatoCells; RIS calibration curve
measuredMetric: Predicted % AUC Change Based on mRNA (%)

[[record]]
compound = "O=C1NC(=O)C(c2ccccc2)(c2ccccc2)N1 [Phenytoin]"
assaytarget = "CYP3A4"
result = 98

[[record]]
compound = "COc1ccc2[nH]c([S+]([O-])Cc3ncc(C)c(OC)c3C)nc2c1 (centres unmarked) [Omeprazole]"
assaytarget = "CYP3A4"
result = 1.7

[[record]]
compound = "CCCN(CCC)S(=O)(=O)c1ccc(C(=O)O)cc1 [Probenecid]"
assaytarget = "CYP3A4"
result = 98

[[record]]
compound = "NC(=O)N1c2ccccc2C=Cc2ccccc21 [Carbamazepine]"
assaytarget = "CYP3A4"
result = 86

[[record]]
compound = "CCc1ccc(CCOc2ccc(CC3SC(=O)NC3=O)cc2)nc1 (centres unmarked) [Pioglitazone]"
assaytarget = "CYP3A4"
result = 36

